Where do the numbers come from? From patent US20240158391A1.

target: CDK1/CyclinB (Homo sapiens, UniProt P06493); experiment: ADP Glo kinase assay, CDK1/CyclinB; conditions: Km ATP, read-out: Enzymatic inhibition, Ki, CDK1 B
Sequence (P06493 whole entry, species assumed): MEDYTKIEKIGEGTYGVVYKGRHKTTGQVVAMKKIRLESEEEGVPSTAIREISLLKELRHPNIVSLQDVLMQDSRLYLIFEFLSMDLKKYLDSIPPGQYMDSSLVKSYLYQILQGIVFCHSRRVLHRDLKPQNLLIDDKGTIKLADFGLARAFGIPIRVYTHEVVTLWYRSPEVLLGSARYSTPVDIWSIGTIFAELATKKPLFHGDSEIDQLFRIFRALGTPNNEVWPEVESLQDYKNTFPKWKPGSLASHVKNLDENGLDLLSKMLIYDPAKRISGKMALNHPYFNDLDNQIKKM
Sequence (P14635 whole entry partner, species assumed): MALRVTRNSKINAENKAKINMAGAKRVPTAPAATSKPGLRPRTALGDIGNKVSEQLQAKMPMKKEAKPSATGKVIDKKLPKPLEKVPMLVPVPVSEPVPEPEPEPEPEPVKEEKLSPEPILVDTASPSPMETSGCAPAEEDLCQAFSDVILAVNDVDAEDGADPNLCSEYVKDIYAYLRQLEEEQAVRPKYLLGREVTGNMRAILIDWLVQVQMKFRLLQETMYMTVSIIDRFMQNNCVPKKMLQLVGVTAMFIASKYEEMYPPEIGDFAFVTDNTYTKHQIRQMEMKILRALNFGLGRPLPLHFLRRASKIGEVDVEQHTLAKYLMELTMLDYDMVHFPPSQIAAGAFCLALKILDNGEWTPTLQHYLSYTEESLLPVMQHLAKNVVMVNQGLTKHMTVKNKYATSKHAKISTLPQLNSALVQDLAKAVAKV
Rule for this label: Satisfied means Ki is less than 200 nM; Not satisfied means Ki is at least 200 nM.

Fc1cnc(Nc2ccc(N3CCOCC3)nc2)nc1-c1cnc2ccccn12; Satisfied
CC(=O)N1CCN(c2ccc(Nc3ncc(F)c(-c4cnc5ccccn45)n3)cn2)CC1; Satisfied
CN1CCN(c2ccc(Nc3nccc(-c4cnc5ccc(Br)cn45)n3)cn2)CC1; Not satisfied
CN1CCN(c2ccc(Nc3nccc(-c4cnc5ccc(-c6cccnc6)cn45)n3)cn2)CC1; Not satisfied
Cc1nc2ccc(F)cn2c1-c1ccnc(Nc2ccc(N3CCN(C)CC3)nc2)n1; Satisfied
Cc1ccc2ncc(-c3ccnc(Nc4ccc(N5CCN(C)CC5)nc4)n3)n2c1; Satisfied

Field: next molecule
Task item: I wonder whether CN1CCN(c2ccc(Nc3nccc(-c4cnc5ccc(-c6cn[nH]c6)cn45)n3)cn2)CC1 has Ki below 200 nM. Can you tell?
Reply: Satisfied

----------
target: CDK7/CyclinH/Mat1 (Homo sapiens); assay: ADP Glo kinase assay, CDK7/CyclinH/Mat1; format: biochemical; conditions: compound at 1 μM, read-out: Residual enzymatic activity (%) at 1 μM, CDK7 H
Rule for this label: 1 means remaining activity at 1 µM is less than 80%; 0 means remaining activity at 1 µM is at least 80%.

CC(C)N1CCN(c2ccc(Nc3nccc(-c4cnc5ccc(-c6ccc(F)nc6)cn45)n3)cn2)CC1 [Compound 55]; 1
O=C(NC1CC1)c1ccc(Nc2ncc(F)c(-c3cnc4ccc(-c5ccccc5)cn34)n2)cn1 [Compound 33]; 0
Brc1ccc2ncc(-c3ccnc(Nc4ccc(N5CCNCC5)nc4)n3)n2c1 [Compound 42]; 1
CN1CCN(Cc2ccc(Nc3nccc(-c4cnc5ccc(-c6ccccc6)cn45)n3)cn2)CC1 [Compound 78]; 1
CS(=O)(=O)N1CCN(c2ccc(Nc3nccc(-c4cnc5ccc(-c6ccc(F)nc6)cn45)n3)cn2)CC1 [Compound 56]; 0

Task item: I wonder whether CN1CCN(c2ccc(Nc3nccc(-c4cnc5ccc(-c6cnn(C)c6)cn45)n3)nc2)CC1 [Comparator compound B, reference compound] has remaining activity at 1 µM below 80%. Can you tell?
Reply: 1

Task item: Would you kindly repeat that for O=C1NCCC12CCN(c1ccc(Nc3nccc(-c4cnc5ccc(Br)cn45)n3)cn1)CC2 [Compound 71] ?
Reply: 0

Task item: Would you kindly repeat that for CCS(=O)(=O)N1CCN(c2ccc(Nc3nccc(-c4cnc5ccc(-c6ccc(F)nc6)cn45)n3)cn2)CC1 [Compound 61] ?
Reply: 1

Task item: Would you kindly repeat that for CC(=O)N1CCN(c2ccc(Nc3nccc(-c4cnc5ccccn45)n3)cn2)CC1 [Compound 41] ?
Reply: 1

Task item: Would you kindly repeat that for O=C1NCCC12CCN(c1ccc(Nc3nccc(-c4cnc5ccc(-c6ccccc6)cn45)n3)cn1)CC2 [Compound 72] ?
Reply: 1

----------
Collected Ki values appear next to each entry.
target: CDK9/CyclinT1 (Homo sapiens, UniProt P50750); experiment: ADP Glo kinase assay, CDK9/CyclinT1; conditions: CDK9/CyclinT1; Km ATP; read-out: Enzymatic inhibition, Ki, CDK9 T1
Sequence (P50750 whole entry, species assumed): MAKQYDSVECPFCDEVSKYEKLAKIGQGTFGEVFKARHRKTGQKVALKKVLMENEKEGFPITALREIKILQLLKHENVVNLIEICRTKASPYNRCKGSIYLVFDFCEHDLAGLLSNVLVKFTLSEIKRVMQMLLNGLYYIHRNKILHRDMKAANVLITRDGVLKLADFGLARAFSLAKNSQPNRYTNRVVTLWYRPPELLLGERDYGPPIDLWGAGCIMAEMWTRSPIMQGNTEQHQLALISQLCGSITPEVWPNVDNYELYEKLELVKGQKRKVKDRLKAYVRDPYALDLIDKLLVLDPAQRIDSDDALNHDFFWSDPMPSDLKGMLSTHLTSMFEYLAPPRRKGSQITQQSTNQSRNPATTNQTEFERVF
Sequence (O60563 whole entry partner, species assumed): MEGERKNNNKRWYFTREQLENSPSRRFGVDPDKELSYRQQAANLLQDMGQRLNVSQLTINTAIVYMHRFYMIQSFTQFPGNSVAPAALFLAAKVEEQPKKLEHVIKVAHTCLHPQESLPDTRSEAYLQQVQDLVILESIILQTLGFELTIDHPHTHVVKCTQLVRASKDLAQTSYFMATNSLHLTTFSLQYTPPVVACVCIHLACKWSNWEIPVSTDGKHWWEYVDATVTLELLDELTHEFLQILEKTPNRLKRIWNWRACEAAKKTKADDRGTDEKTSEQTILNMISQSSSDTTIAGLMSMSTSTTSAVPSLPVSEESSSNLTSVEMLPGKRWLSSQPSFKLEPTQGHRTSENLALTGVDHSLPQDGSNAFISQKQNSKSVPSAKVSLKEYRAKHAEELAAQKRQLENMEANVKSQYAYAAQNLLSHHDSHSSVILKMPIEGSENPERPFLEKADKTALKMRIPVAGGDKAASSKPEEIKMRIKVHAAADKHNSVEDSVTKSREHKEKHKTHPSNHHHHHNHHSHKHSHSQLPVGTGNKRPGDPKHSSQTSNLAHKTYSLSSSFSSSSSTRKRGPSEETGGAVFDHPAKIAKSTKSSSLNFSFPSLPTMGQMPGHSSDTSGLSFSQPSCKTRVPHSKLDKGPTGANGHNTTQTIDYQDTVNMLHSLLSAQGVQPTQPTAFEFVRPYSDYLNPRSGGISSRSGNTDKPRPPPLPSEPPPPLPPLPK
Entry rule: numbers only, all in nM.

For orientation, consider the following solved cases.
Cc1cnc(Nc2ccc(N3CCNCC3)nc2)nc1-c1cnc2ccccn12 [Compound 13]; 494
Brc1ccc2ncc(-c3ccnc(Nc4ccc(N5CCCC5)nc4)n3)n2c1 [Compound 26]; 261
CC(=O)N1CCN(c2ccc(Nc3ncc(C)c(-c4cnc5ccccn45)n3)cn2)CC1 [Compound 11]; 1340
CN1CCN(c2ccc(Nc3nccc(-c4cnc5ccc(Br)cn45)n3)cn2)CC1 [Compound 5]; 5
CS(=O)(=O)N1CCN(c2ccc(Nc3nccc(-c4cnc5ccc(-c6cncnc6)cn45)n3)cn2)CC1 [Compound 20]; 56
CN1CCN(c2ccc(Nc3ncc(F)c(-c4cnc5ccc(-c6ccccc6)cn45)n3)cn2)CC1 [Compound 28]; 86
CN1CCN(c2ccc(Nc3nccc(-c4cnc5ccc(-c6cnn(C)c6)cn45)n3)cn2)CC1 [Compound 9]; 2
Cc1ccc2ncc(-c3ccnc(Nc4ccc(N5CCN(C)CC5)nc4)n3)n2c1 [Compound 35]; 4
Fc1cnc(Nc2ccc(N3CCOCC3)nc2)nc1-c1cnc2ccccn12 [Compound 15]; 234
CN1CCN(c2ccc(Nc3nccc(-c4cnc5ccccn45)n3)cn2)CC1 [Compound 1]; 2

Task item: Given the entry CCS(=O)(=O)N1CCN(c2ccc(Nc3nccc(-c4cnc5ccc(-c6ccccc6)cn45)n3)cn2)CC1 [Compound 60] , report its measured Ki.
Reply: 509

Task item: Would you kindly repeat that for Fc1cnc(Nc2ccc(N3CCN(CCN4CCOCC4)CC3)nc2)nc1-c1cnc2ccc(-c3ccccc3)cn12 [Compound 30] ?
Reply: 75

Task item: Would you kindly repeat that for CN(C)C1CCN(Cc2ccc(Nc3nccc(-c4cnc5ccc(Br)cn45)n3)cn2)CC1 [Compound 81] ?
Reply: 143

Task item: Would you kindly repeat that for CN(C)c1ccc(Nc2nccc(-c3cnc4ccc(C5=CCN(C(=O)OC(C)(C)C)CC5)cn34)n2)cn1 [Compound 67] ?
Reply: 1630

Task item: Would you kindly repeat that for Fc1cnc(Nc2cccnc2)nc1-c1cnc2ccccn12 [Compound 4] ?
Reply: 41

----------
Biological target: CDK2/CyclinA2 (Homo sapiens, UniProt P24941)
Assay: ADP Glo kinase assay, CDK2/CyclinA2
Type: biochemical
Conditions: compound at 1 μM, read-out: Residual enzymatic activity (%) at 1 μM, CDK2 A
Experimental: Test compounds are used in 1:3 serial dilutions for 10 concentrations (from 10-0.0005 μM) in 0.5% DMSO. […] The kinase reactions are run for optimised time period at room temperature and then the reaction is stopped by adding 5 μL of ADP Glo reagent.
Rule for this label: Condition met means remaining activity at 1 µM is less than 70%; Condition not met means remaining activity at 1 µM is at least 70%.

Task item: I wonder whether CCS(=O)(=O)N1CCN(c2ccc(Nc3nccc(-c4cnc5ccc(-c6ccccc6)cn45)n3)cn2)CC1 has remaining activity at 1 µM below 70%. Can you tell?
Reply: Condition not met

----------
Collected pKi values appear next to each entry.
target: CDK7/CyclinH/Mat1 (Homo sapiens, UniProt P50613); assay: ADP Glo kinase assay, CDK7/CyclinH/Mat1; type: biochemical; settings: Km ATP, read-out: Enzymatic inhibition, Ki, CDK7 H
Sequence (P50613 whole entry, species assumed): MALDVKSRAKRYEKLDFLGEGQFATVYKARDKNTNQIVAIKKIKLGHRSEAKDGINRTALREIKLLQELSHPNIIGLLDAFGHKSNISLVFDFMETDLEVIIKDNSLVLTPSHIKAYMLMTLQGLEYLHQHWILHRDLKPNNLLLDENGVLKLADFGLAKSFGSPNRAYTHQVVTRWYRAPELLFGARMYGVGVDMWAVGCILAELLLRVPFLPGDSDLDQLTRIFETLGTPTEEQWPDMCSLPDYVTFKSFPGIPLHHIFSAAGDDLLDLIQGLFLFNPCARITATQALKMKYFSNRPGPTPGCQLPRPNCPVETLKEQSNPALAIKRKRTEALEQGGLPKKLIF
Sequence (P51946 whole entry partner, species assumed): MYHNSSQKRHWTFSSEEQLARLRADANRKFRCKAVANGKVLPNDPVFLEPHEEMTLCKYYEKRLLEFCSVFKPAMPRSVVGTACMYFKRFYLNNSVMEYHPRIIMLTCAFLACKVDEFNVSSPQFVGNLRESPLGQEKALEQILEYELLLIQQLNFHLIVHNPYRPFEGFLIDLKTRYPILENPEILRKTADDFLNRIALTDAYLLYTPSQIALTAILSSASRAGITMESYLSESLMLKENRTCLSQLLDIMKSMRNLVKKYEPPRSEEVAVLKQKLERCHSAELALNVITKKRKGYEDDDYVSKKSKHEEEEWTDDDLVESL
Sequence (P51948 whole entry partner, species assumed): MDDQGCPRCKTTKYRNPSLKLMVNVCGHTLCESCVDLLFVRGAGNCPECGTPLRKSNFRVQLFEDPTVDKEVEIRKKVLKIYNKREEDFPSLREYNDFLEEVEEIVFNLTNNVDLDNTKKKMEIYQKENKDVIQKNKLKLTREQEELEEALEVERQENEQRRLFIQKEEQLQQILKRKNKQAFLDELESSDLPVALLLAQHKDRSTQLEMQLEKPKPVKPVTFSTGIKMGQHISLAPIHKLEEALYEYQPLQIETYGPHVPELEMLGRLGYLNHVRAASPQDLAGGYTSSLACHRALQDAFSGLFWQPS
pKi here is simply -log10 of the concentration when that concentration is written in mol/L.

For orientation, consider the following solved cases.
CC(=O)N1CCN(c2ccc(Nc3ncc(F)c(-c4cnc5ccccn45)n3)cn2)CC1; 6.05
CN(C)C1CCN(Cc2ccc(Nc3nccc(-c4cnc5ccc(Br)cn45)n3)cn2)CC1; 6.69
CC(C)N1CCN(c2ccc(Nc3nccc(-c4cnc5ccc(-c6ccccc6)cn45)n3)cn2)CC1; 6.83
CN1CCN(c2ccc(Nc3nccc(-c4cnc5ccc(Cl)cn45)n3)cn2)CC1; 6.11

Task item: Given the entry CN1CCN(c2ccc(Nc3ncc(F)c(-c4cnc5ccc(-c6ccccc6)cn45)n3)cn2)CC1 , report its measured pKi.
Reply: 6.50

Task item: Would you kindly repeat that for CC(=O)N1CCN(c2ccc(Nc3nccc(-c4cnc5ccc(-c6cn[nH]c6)cn45)n3)cn2)CC1 ?
Reply: 6.58

Task item: Would you kindly repeat that for CS(=O)(=O)N1CCN(c2ccc(Nc3nccc(-c4cnc5ccc(-c6cncnc6)cn45)n3)cn2)CC1 ?
Reply: 6.05

----------
target: CDK9/CyclinT1 (Homo sapiens, UniProt P50750); experiment: ADP Glo kinase assay, CDK9/CyclinT1; conditions: CDK9/CyclinT1; Km ATP; read-out: Enzymatic inhibition, Ki, CDK9 T1
pKi: −log10 of the molar value.
Classify as follows. Reported pKi greater than or equal to 7: T. Reported pKi below: F.

O=C(c1ccco1)N1CCN(c2ccc(Nc3nccc(-c4cnc5ccc(Br)cn45)n3)cn2)CC1; F
CS(=O)(=O)N1CCN(c2ccc(Nc3nccc(-c4cnc5ccc(-c6cccs6)cn45)n3)cn2)CC1; T
CC(C)N1CCN(c2ccc(Nc3nccc(-c4cnc5ccc(Br)cn45)n3)cn2)CC1; T
CC(=O)N1CCN(c2ccc(Nc3nccc(-c4cnc5ccc(-c6cccc7[nH]ccc67)cn45)n3)cn2)CC1; F
CCS(=O)(=O)N1CCN(c2ccc(Nc3nccc(-c4cnc5ccc(Br)cn45)n3)cn2)CC1; F

Field: next molecule
Task item: Evaluate CN1CCN(c2ccc(Nc3nccc(-c4cnc5ccc(-c6cnn(C)c6)cn45)n3)nc2)CC1 [Comparator compound B, reference compound] : pKi at minimum 7?
Reply: F

----------
Target: CDK2/CyclinA2 (Homo sapiens, UniProt P24941)
Assay: ADP Glo kinase assay, CDK2/CyclinA2
Conditions: Km ATP, read-out: Enzymatic inhibition, Ki, CDK2 A
Method: Test compounds are used in 1:3 serial dilutions for 10 concentrations (from 10-0.0005 μM) in 0.5% DMSO. […] The kinase reactions are run for optimised time period at room temperature and then the reaction is stopped by adding 5 μL of ADP Glo reagent.
Collected pKi values appear next to each entry.
pKi here is simply -log10 of the concentration when that concentration is written in mol/L.

CN1CCN(c2ccc(Nc3nccc(-c4cnc5ccc(C(F)(F)F)cn45)n3)cn2)CC1; 6.88
CC(C)N1CCN(c2ccc(Nc3nccc(-c4cnc5ccc(Br)cn45)n3)cn2)CC1; 7.36
Brc1ccc2ncc(-c3ccnc(Nc4ccc(NC5CCOCC5)nc4)n3)n2c1; 7.25
CN1CCN(c2ccc(Nc3nccc(-c4cnc5ccc(-c6cnn(C)c6)cn45)n3)cn2)CC1; 5.99

Kindly review the next compound as well.
Task item: Given the entry CS(=O)(=O)N1CCN(c2ccc(Nc3nccc(-c4cnc5ccc(Br)cn45)n3)cn2)CC1 , report its measured pKi.
Reply: 6.91
